System: 4T1
Experiment: % inhibition of 4T1 cell number vs DMSO control; higher = stronger growth inhibition
Details: 1 µM; 3 days; substrate: plastic
# binarize % inhibition of 4T1 cell number: threshold 30% inclusive, high side Y, low side N

Could you please find out whether CCC(CO)Nc1nc(NCc2ccccc2)c2ncn(C(C)C)c2n1 [Roscovitine, (S)-Isomer] has % inhibition of 4T1 cell number that meets 30% or exceeds it?
N

Ok, now `c1ccc(-c2cnc(Nc3ccc(OCCN4CCCC4)cc3)s2)cc1`
Y

Ok, now `COc1cc2ncc(-c3ccccc3)nc2cc1OC`
Y

Ok, now `Brc1c(Br)c(Br)c2n[nH]nc2c1Br`
Y

Ok, now `COc1cc2ncnc(N3CCN(C(=O)Nc4ccc(Oc5ccccc5)cc4)CC3)c2cc1OC`
N

Ok, now `Cc1ncc2ccccc2c1C#N`
Y

Ok, now `CCC(=O)Nc1ccc2ncnc(Nc3cccc(Br)c3)c2c1`
N

Ok, now `NC(=O)Nc1cc(-c2ccccc2)sc1C(N)=O`
N

Ok, now `COc1cc2c(cc1OC)-c1[nH]nc(Nc3cccc(F)c3)c1C2`
Y

* * *

Answer each item with its documented % inhibition of 4T1 cell number.
Test system: 4T1
Test: % inhibition of 4T1 cell number vs DMSO control; higher = stronger growth inhibition
Conditions: 1 µM; 3 days; substrate: lung fibroblast-derived matrix
Kindly format the answer as number then unit.

I have this compound here, O=C(Nc1ccc(-c2cn[nH]c2)cc1)C1COc2ccccc2O1 (stereo unspecified) , and I need its recorded % inhibition of 4T1 cell number.
-8.88%

Ok, now `c1ccc(-c2cnc(Nc3ccc(OCCN4CCCC4)cc3)s2)cc1`
5.06%

Ok, now `O=C1NC(=O)/C(=C/c2ccc3c(c2)OC(F)(F)O3)S1`
39.7%

Ok, now `COc1ccc(-c2cnc3c(-c4ccsc4)cnn3c2)cc1`
-18.1%

Ok, now `CO[C@H]1C[C@@H]2CC[C@@H](C)[C@@](O)(O2)C(=O)C(=O)N2CCCC[C@H]2C(=O)O[C@H]([C@H](C)C[C@@H]2CC[C@@H](O)[C@H](OC)C2)CC(=O)[C@H](C)/C=C(\C)[C@@H](O)[C@@H](OC)C(=O)[C@H](C)C[C@H](C)/C=C/C=C/C=C/1C`
-0.258%

Ok, now OCC(O)CCO/N=C1\C(c2c(O)[nH]c3ccccc23)=Nc2ccccc21 (stereo unspecified)
-5.02%

Ok, now `CCCCc1c(-c2ccc(O)cc2)[nH]c2nccnc12`
1.62%

Ok, now `CCC(=O)Nc1ccc2ncnc(Nc3cccc(Br)c3)c2c1`
-2.26%

Ok, now `Cc1cc(Nc2nc(-c3ccccc3)nc3ccccc23)n[nH]1`
-19%

Ok, now `Nc1[nH]nc2nnc(-c3c(-c4ccccc4)nn4ccccc34)cc12`
-14.3%

Ok, now `O=C(c1ccc(Nc2nccc(-c3cc4ccccc4s3)n2)cc1)N1CCC(N2CCCC2)CC1`
-10%

Ok, now `Nc1ncnc2c1c(I)cn2[C@@H]1O[C@H](CO)[C@@H](O)[C@H]1O`
7.74%

Ok, now `COc1ccc(Cl)cc1NC(=O)Nc1cc(C)nc2ccccc12`
-3.14%

Ok, now `CC[C@H](CO)Nc1nc(NCc2ccccc2)c2ncn(C(C)C)c2n1`
-2.74%

Ok, now `O=C(Nc1cccc(Nc2nccc(Nc3cccc(C(F)(F)F)c3)n2)c1)C1CC1`
97.8%

Ok, now `COc1ccc(COc2ccc(Cc3cnc(N)nc3N)cc2OC)cc1`
2.62%
